These measurements were taken from patent US20210130436A1.

- MEASURED_ON: T1, human PD-L1 (human, UniProt Q9NZQ7 19-290)
- T1 construct: also called huPD-L1; CD274
- TEST_DETAILS: flow cytometry; PD-L1 MFI over CD28 MFI
Kindly state Ratio of PDL1:CD28 for each of the entries shown.
Please state the figure in ratio; there is no need to write the unit.

Ratio of PDL1:CD28 recorded for this binder, CD80 IgV-Fc T13R/Q33R/E35D/M38I/M47L/V68M/L85M (Fc fusion, not shown: a dimerising Fc or GST) VIHVTKEVKEVARLSCGHNVSVEELAQTRIYWRKDKKIVLTMMSGDLNIWPEYKNRTIFDITNNLSIMILALRPSDEGTYECVVMKYEKDAFKREHLAEVTLSVKAD , is 77.9

Ratio of PDL1:CD28 recorded for this binder, CD80 IgV-Fc T13R/Q33L/E35D/M47L/V68M/L85M (Fc fusion, not shown: a dimerising Fc or GST) VIHVTKEVKEVARLSCGHNVSVEELAQTRIYWLKDKKMVLTMMSGDLNIWPEYKNRTIFDITNNLSIMILALRPSDEGTYECVVMKYEKDAFKREHLAEVTLSVKAD , is 206

Ratio of PDL1:CD28 recorded for this binder, CD80 IgV-Fc T13R/Q27L/Q33L/E35D/T41S/M47V/N48K/V68M/L85M (Fc fusion, not shown: a dimerising Fc or GST) VIHVTKEVKEVARLSCGHNVSVEELALTRIYWLKDKKMVLSMMSGDVKIWPEYKNRTIFDITNNLSIMILALRPSDEGTYECVVMKYEKDAFKREHLAEVTLSVKAD , is 224

Ratio of PDL1:CD28 recorded for this binder, CD80 WT IgV-Fc (Fc fusion, not shown: a dimerising Fc or GST, Wild-type control; also called WT CD80-IgV-Fc) VIHVTKEVKEVATLSCGHNVSVEELAQTRIYWQKEKKMVLTMMSGDMNIWPEYKNRTIFDITNNLSIVILALRPSDEGTYECVVLKYEKDAFKREHLAEVTLSVKAD , is 0.5
